# interaction score values compiled below
# target: T1, 4H816-AA
# T1 chain: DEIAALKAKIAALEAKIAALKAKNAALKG
# protocol: two-hybrid library CCmax;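 also: natural log of median RNA to DNA barcode read ratio; higher means stronger binding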
# assay-conditions: mean of both orientations
Simply state the number, no unit and no words.

>>> reported_result("DKIAALKAKIAALEAKNAALKAEIAALEG [4H2873-AA]")
-0.999
>>> reported_result("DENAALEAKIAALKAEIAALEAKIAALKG [4H1350-AA]")
1.16
>>> reported_result("DKNAALEAKIAALKAENAALEAEIAALEG [4H3409-AA]")
-1.37
>>> reported_result("DKIAALEAKNAALKAEIAALKAKNAALKG [4H2512-AA]")
-1.79
>>> reported_result("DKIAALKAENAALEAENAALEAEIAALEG [4H2705-AA]")
-1.52

Q: Request the reported interaction score associated with DEIAALEAKIAALEAENAALEAKIAALKG [4H278-AA]
A: 0.427

Q: Request the reported interaction score associated with DKIAALKAENAALKAEIAALEAKIAALKG [4H2758-AA]
A: -1.38
